These entries and their values trace back to patent US11213510B2.

Test system: DU145 prostate cancer cell line
Test: MTS cell viability assay, DU145
Type: cell-based
Conditions: DU145, 48 h, MTS; read-out: IC50 values (μM) against prostate cancer and melanoma DU145 (prostate cancer)
measured endpoint: IC50

What does the data say about its IC50? Entry: `COC(=O)c1ccc2c(c1)C(=N\O)/C(=C1/C(=O)Nc3ccccc31)S2`
> 10 µM

====

Test system: A549 non-small lung cancer cell line
Assay: MTS cell viability assay, A549
Type: cell-based
Settings: Homo sapiens, A549, 48 h, read-out: IC50 values (μM) against non-small lung cancer A549
measured endpoint: IC50 (µM)
Record the value in µM, omitting the unit from your answer.

Endpoint output: IC50 of `COC(=O)c1ccc2c(c1)C(=N\OCCN1CCNCC1)/C(=C1/C(=O)Sc3ccccc31)N2` . Value?
4.6

====

Would you kindly list Cell viability (% control) DU145 1 μM for each of these molecules?
System: DU145 prostate cancer cell line
Assay: MTS cell viability assay, DU145
Assay type: cell-based
Details: DU145, 1 μM, 48 h, MTS
Only the number, expressed in % control, is required.

// returns reported Cell viability (% control) DU145 1 μM for input `Cc1ccc2c(c1)C(=O)/C(=C1/C(=O)Nc3ccccc31)S2`
94

Item `Cc1ccc2c(c1)C(=N\O)/C(=C1/C(=O)Nc3ccccc31)S2` has what recorded Cell viability (% control) DU145 1 μM?
88

Bench note: what Cell viability (% control) DU145 1 μM did `COC(=O)c1ccc2c(c1)S/C(=C1\C(=O)Nc3ccccc31)C2=O` show?
99

====

System: H526 small lung cancer cell line
Assay: MTS cell viability assay, H526
Format: cell-based
Settings: Homo sapiens, NCI-H526, H526, 48 h, read-out: IC50 values (μM) against small lung cancer H526
measured endpoint: IC50

Given the compound `COC(=O)c1ccc2c(c1)C(=N\OCCN1CCNCC1)/C(=C1/C(=O)Sc3ccccc31)N2` , what is its reported IC50?
1.7 µM

====

System: DU145 prostate cancer cell line
Experiment: MTS cell viability assay, DU145
Format: cell-based
Conditions: DU145, 10 μM, 48 h, MTS
measured endpoint: Cell viability (% control) DU145 10 μM
Record the value in % control, omitting the unit from your answer.

Form field: reported Cell viability (% control) DU145 10 μM of `N#Cc1ccc2c(c1)C(=N\O)/C(=C1/C(=O)Nc3ccccc31)S2`
93

Report Cell viability (% control) DU145 10 μM for `Cc1ccc2c(c1)C(=N\O)/C(=C1/C(=O)Nc3ccccc31)S2` please.
79

Quick one: Cell viability (% control) DU145 10 μM for `O=C1Nc2ccccc2/C1=C1/Sc2ccccc2C1=O` ?
90

Query (compound): `COC(=O)c1ccc2c(c1)S/C(=C1\C(=O)Nc3ccccc31)C2=O` ; field requested: Cell viability (% control) DU145 10 μM
93

Tell me the measured Cell viability (% control) DU145 10 μM of `N#Cc1ccc2c(c1)C(=O)/C(=C1/C(=O)Sc3ccccc31)N2` , please.
95

Given the compound `O=C1Sc2ccccc2/C1=C1/Nc2cc(Cl)ccc2/C1=N\O` , what is its reported Cell viability (% control) DU145 10 μM?
33

Look at this compound and give its reported Cell viability (% control) DU145 10 μM. `COC(=O)c1ccc2c(c1)C(=N\O)/C(=C1/C(=O)Nc3ccccc31)S2`
88

Recorded Cell viability (% control) DU145 10 μM of `O=C1Sc2ccccc2/C1=C1/Nc2cc(Cl)ccc2C1=O` , please.
82

====

Test system: DU145 prostate cancer cell line
Experiment: MTS cell viability assay, DU145
Format: cell-based
Conditions: DU145, 1 μM, 48 h, MTS
measured endpoint: Cell viability (% control) DU145 1 μM

Reported Cell viability (% control) DU145 1 μM for `O=C1Sc2ccccc2/C1=C1/Nc2ccc(Br)cc2C1=O` : what is it?
>100 % control

Suppose we examine the compound `O=C1Sc2ccccc2/C1=C1/Nc2cc(Cl)ccc2/C1=N\O` ; what Cell viability (% control) DU145 1 μM value has been reported?
>100 % control

Entry under review: `N#Cc1ccc2c(c1)C(=O)/C(=C1/C(=O)Sc3ccccc31)N2` . Reported Cell viability (% control) DU145 1 μM?
>100 % control

Name the reported Cell viability (% control) DU145 1 μM value associated with the compound `N#Cc1ccc2c(c1)C(=N\O)/C(=C1/C(=O)Nc3ccccc31)S2`
>100 % control

Bench note: what Cell viability (% control) DU145 1 μM did `O=C1Sc2ccccc2/C1=C1/Nc2cc(Cl)ccc2C1=O` show?
80 % control

====

System: A2058 melanoma cell line
Assay: MTS cell viability assay, A2058
Assay type: cell-based
Conditions: A2058, 10 μM, 48 h, MTS
For each of the compounds below, state its Cell viability (% control) A2058 10 μM.
Output spec: scalar in % control, unitless text.

Which Cell viability (% control) A2058 10 μM is listed for `Cc1ccc2c(c1)C(=N\O)/C(=C1/C(=O)Nc3ccccc31)S2` ?
88

# query: Cell viability (% control) A2058 10 μM of entry `N#Cc1ccc2c(c1)C(=N\O)/C(=C1/C(=O)Nc3ccccc31)S2`
99

# get_value(readout='Cell viability (% control) A2058 10 μM', item= `COC(=O)c1ccc2c(c1)C(=O)/C(=C1/C(=O)Sc3ccccc31)N2` )
94

Which Cell viability (% control) A2058 10 μM reading was recorded for the compound `N#Cc1ccc2c(c1)C(=O)/C(=C1/C(=O)Sc3ccccc31)N2` ?
87

# get_value(readout='Cell viability (% control) A2058 10 μM', item= `O=C1Sc2ccccc2/C1=C1/Nc2ccc(Br)cc2C1=O` )
100

Cell viability (% control) A2058 10 μM for `O=C1Sc2ccccc2/C1=C1/Nc2cc(Cl)ccc2C1=O` ?
96

Tell me the measured Cell viability (% control) A2058 10 μM of `COC(=O)c1ccc2c(c1)C(=N\O)/C(=C1/C(=O)Nc3ccccc31)S2` , please.
68

For the compound shown here, `O=C1Sc2ccccc2/C1=C1/Nc2cc(Cl)ccc2/C1=N\O` , give the reported Cell viability (% control) A2058 10 μM.
27

Find the recorded Cell viability (% control) A2058 10 μM belonging to `Cc1ccc2c(c1)C(=O)/C(=C1/C(=O)Nc3ccccc31)S2` and report it.
97

Recorded Cell viability (% control) A2058 10 μM of `O=C1Nc2ccccc2/C1=C1/Sc2ccccc2C1=O` , please.
77
